Measurement Target: T1, recombinant human MSLN ECD His-tag protein (Acro Biosystems, Catalog #MSN-H5223) (human, UniProt Q13421 296-580, limits assumed)
T1 construct: extracellular domain; Bought protein; also called human MSLN protein; recombinant human MSLN-His tag; not shown: His-tag
T1 sequence (Q13421 other isoform, or with tags, fused parts or gaps limits assumed): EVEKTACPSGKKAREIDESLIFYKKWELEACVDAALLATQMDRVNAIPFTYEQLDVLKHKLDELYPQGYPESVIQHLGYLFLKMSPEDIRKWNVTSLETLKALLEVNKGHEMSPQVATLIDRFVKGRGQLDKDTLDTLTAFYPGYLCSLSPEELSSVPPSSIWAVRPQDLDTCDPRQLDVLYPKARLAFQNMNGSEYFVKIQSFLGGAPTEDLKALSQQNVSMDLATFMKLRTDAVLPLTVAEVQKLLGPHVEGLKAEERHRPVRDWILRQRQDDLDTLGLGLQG
Test Name: BLI (Octet Red384), antibody on AHC sensor, human MSLN-His in solution
Value Kind: kon (M⁻¹ s⁻¹)
Enter your answer as a number in M⁻¹ s⁻¹; do not include the unit.

// lookup kon for PR300159-7 (antibody, V domains shown, PTM removal variant of PR300159: light chain N92T) VH: QVQLVESGGGVVQPGRSLRLSCAASGFTFSSDGMNWVRQAPGKGLEWVAVIWNDGSNKYYADSVKGRFTISRDNSKNTLYLQMNSLRAEDTAVYYCARDRGPLWPLDYWGQGTLVTVSS VL: DIQMTQSPSTLSASVGDRVTITCRASQSISRWLAWYQQKPGKAPKLLIYKASSLESGVPSRFSGSGSGTEFTLTISNLQPDDFATFYCQQYTSYSRTFGQGTKVEIKR
1.06e+06

// lookup kon for PR300159-6 (antibody, V domains shown, PTM removal variant of PR300159: light chain S93T) VH: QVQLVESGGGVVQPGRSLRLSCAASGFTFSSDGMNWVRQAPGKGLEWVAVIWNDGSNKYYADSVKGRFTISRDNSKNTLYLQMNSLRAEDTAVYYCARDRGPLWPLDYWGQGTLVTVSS VL: DIQMTQSPSTLSASVGDRVTITCRASQSISRWLAWYQQKPGKAPKLLIYKASSLESGVPSRFSGSGSGTEFTLTISNLQPDDFATFYCQQYNTYSRTFGQGTKVEIKR
819000

// lookup kon for PR300159-8 (antibody, V domains shown, PTM removal variant of PR300159: light chain N92A) VH: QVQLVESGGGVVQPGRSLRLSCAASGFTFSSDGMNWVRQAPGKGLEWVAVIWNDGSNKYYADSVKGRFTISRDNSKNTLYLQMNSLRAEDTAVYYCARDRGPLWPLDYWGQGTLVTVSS VL: DIQMTQSPSTLSASVGDRVTITCRASQSISRWLAWYQQKPGKAPKLLIYKASSLESGVPSRFSGSGSGTEFTLTISNLQPDDFATFYCQQYASYSRTFGQGTKVEIKR
956000

// lookup kon for PR300159-5 (antibody, V domains shown, PTM removal variant of PR300159: light chain N92Q) VH: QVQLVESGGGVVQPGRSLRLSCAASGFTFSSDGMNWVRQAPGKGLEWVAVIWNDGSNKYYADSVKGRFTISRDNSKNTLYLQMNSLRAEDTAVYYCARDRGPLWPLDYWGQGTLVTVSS VL: DIQMTQSPSTLSASVGDRVTITCRASQSISRWLAWYQQKPGKAPKLLIYKASSLESGVPSRFSGSGSGTEFTLTISNLQPDDFATFYCQQYQSYSRTFGQGTKVEIKR
1.05e+06
